Just for reference, ChEMBL document CHEMBL4842358 is where these values come from.

Experiment: AUC (0 to t) in Sprague-Dawley rat blood at 1 mg/kg, iv measured for 24 hrs by LC-MS/MS analysis
Assay type: ADME, organism-based
Parameters: time 24 hrs, dose 1 mg/kg
AUC(0-t) at 24 h overview

{"Smiles structure": "O=C(Nc1cc(Cl)nc(Cl)c1)Nc1cc(Cl)nc(Cl)c1", "AUC(0-t) at 24 h [ng·h/mL]": 1890}
{"Smiles structure": "Cc1nn(C)c2nc(NNC(=O)Nc3cc(Cl)nc(Cl)c3)cc(C(C)C)c12", "AUC(0-t) at 24 h [ng·h/mL]": 726}

###

Experiment: Clearance in Sprague-Dawley rat blood at 1 mg/kg, iv measured for 24 hrs by LC-MS/MS analysis
Assay type: ADME, organism-based

{"Smiles structure": "Cc1nn(C)c2nc(NNC(=O)Nc3cc(Cl)nc(Cl)c3)cc(C(C)C)c12", "clearance": "23.3 mL/min/kg"}
{"Smiles structure": "O=C(Nc1cc(Cl)nc(Cl)c1)Nc1cc(Cl)nc(Cl)c1", "clearance": "8.5 mL/min/kg"}

###

Biological target: Sphingosine 1-phosphate receptor 2 (Homo sapiens)
Experiment: Binding affinity to S1PR2 (unknown origin) assessed as dissociation constant measured for 60 secs by surface plasmon resonance assay
Parameter: Dissociation rate constant (koff)

{"Smiles structure": "Cc1cc(NC(=O)Nc2cc(Cl)nc(Cl)c2)n(C)n1", "Parameter": "Dissociation rate constant (koff)", "Result value": "1.77 10^-1/s"}
{"Smiles structure": "COc1ccc(-c2ccc3cc(NC(=O)Nc4cc(Cl)nc(Cl)c4)nn3c2)cc1", "Parameter": "Dissociation rate constant (koff)", "Result value": "1.12 10^-1/s"}
{"Smiles structure": "CN(C)c1nc(NNC(=O)Nc2cc(Cl)nc(Cl)c2)nc2c1ccn2C", "Parameter": "Dissociation rate constant (koff)", "Result value": "1.02 10^-1/s"}
{"Smiles structure": "CNc1cc(C)nc(NNC(=O)Nc2cc(Cl)nc(Cl)c2)n1", "Parameter": "Dissociation rate constant (koff)", "Result value": "2.36 10^-1/s"}

###

Target: Sphingosine 1-phosphate receptor 2 (Homo sapiens, UniProt O95136)
Sequence (O95136 whole entry): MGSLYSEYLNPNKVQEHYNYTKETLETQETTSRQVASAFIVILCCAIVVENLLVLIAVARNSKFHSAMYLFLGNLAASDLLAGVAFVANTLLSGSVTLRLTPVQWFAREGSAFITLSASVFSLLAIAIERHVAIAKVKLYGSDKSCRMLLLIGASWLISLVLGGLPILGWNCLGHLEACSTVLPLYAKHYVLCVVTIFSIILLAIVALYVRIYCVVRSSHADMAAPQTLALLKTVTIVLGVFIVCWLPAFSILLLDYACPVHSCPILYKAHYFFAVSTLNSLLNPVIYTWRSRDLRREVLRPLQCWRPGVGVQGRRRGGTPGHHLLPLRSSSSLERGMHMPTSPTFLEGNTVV
Experiment: Binding affinity to S1PR2 (unknown origin) measured by surface plasmon resonance assay
Conditions: filed as antagonist

{"Smiles structure": "O=C(Nc1cc(Cl)nc(Cl)c1)Nc1cc(Cl)nc(Cl)c1", "K": "1.32 10^-8M"}
{"Smiles structure": "Cc1nn(C)c2nc(NNC(=O)Nc3cc(Cl)nc(Cl)c3)cc(C(C)C)c12", "K": "1.96 10^-6M"}
{"Smiles structure": "CN1CCN(C(=O)Nc2cc(Cl)nc(Cl)c2)CC1", "K": "5.35 10^-7M"}
{"Smiles structure": "CC(C)Oc1cc(NC(=O)Nc2cc(Cl)nc(Cl)c2)cc(Cl)n1", "K": "1.3 10^-7M"}
{"Smiles structure": "COc1c(Cl)cc(NC(=O)Nc2cc(Cl)nc(Cl)c2)cc1Cl", "K": "5 10^-8M"}
{"Smiles structure": "Cc1cc(NC(=O)Nc2cc(Cl)nc(Cl)c2)n(C)n1", "K": "3.3 10^-6M"}
{"Smiles structure": "O=C(NNc1nc(Nc2ccccc2)nc(N2CCCC2)n1)Nc1cc(Cl)nc(Cl)c1", "K": "1.86 10^-7M"}
{"Smiles structure": "O=C(Nc1ccnc(Cl)c1)Nc1cc(Cl)nc(Cl)c1", "K": "5.5 10^-6M"}
{"Smiles structure": "CCOc1cc(NC(=O)Nc2cc(Cl)nc(Cl)c2)cc(Cl)n1", "K": "5.2 10^-7M"}
{"Smiles structure": "COc1cc(NC(=O)Nc2cc(Cl)nc(Cl)c2)cc(Cl)n1", "K": "6.82 10^-7M"}
{"Smiles structure": "O=C(Nc1cc(Cl)nc(Cl)c1)Nc1cc2ccc(Br)cn2n1", "K": "2.02 10^-8M"}
{"Smiles structure": "Cn1ccc2c(-c3ccccc3)nc(NNC(=O)Nc3cc(Cl)nc(Cl)c3)nc21", "K": "2.61 10^-6M"}
{"Smiles structure": "O=C(Nc1cc(Cl)cc(Cl)c1)Nc1cc(Cl)nc(Cl)c1", "K": "3.56 10^-6M"}
{"Smiles structure": "O=C(Nc1cc(Cl)nc(Cl)c1)Nc1cc(Cl)nc(OC2CCCC2)c1", "K": "3.99 10^-7M"}
{"Smiles structure": "O=C(Nc1cc(Cl)nc(Cl)c1)Nc1cc2ccccn2n1", "K": "1.46 10^-8M"}
{"Smiles structure": "COc1ccc(-c2ccc3cc(NC(=O)Nc4cc(Cl)nc(Cl)c4)nn3c2)cc1", "K": "1.22 10^-8M"}
{"Smiles structure": "O=C(NNc1nc(N2CCOCC2)c2ccn(C3CC3)c2n1)Nc1cc(Cl)nc(Cl)c1", "K": "2.17 10^-6M"}
{"Smiles structure": "CNc1cc(C)nc(NNC(=O)Nc2cc(Cl)nc(Cl)c2)n1", "K": "4.24 10^-6M"}
{"Smiles structure": "Cc1cc(NC(=O)Nc2cc(Cl)nc(Cl)c2)cc(C)n1", "K": "2.57 10^-8M"}
{"Smiles structure": "CN(C)c1nc(NNC(=O)Nc2cc(Cl)nc(Cl)c2)nc2c1ccn2C", "K": "1.85 10^-6M"}
{"Smiles structure": "O=C(Nc1cc(Cl)nc(Cl)c1)Nc1cc2ccc(-c3ccccc3)cn2n1", "K": "4.38 10^-8M"}
